The origin of these recorded values is patent US12234248B2.

assay: Stability of crystalline material under warm humid conditions (40° C., 75% relative humidity), PXRD before and after; format: physicochemical; conditions: stored at 40° C., 75% relative humidity; stable = retained crystal form for at least two weeks by PXRD
outcome measure: Stable?

Solved entries (count: 4):
compound	outcome measure	measured value
COc1ccccc1C(=O)[O-].O=C(O)[C@@H]1CCCN1.[Li+] [Compound 1, [Li(2-methoxybenzoate)(L-proline)]n]	Stable?	Yes
NC(=O)c1ccncc1.NC(=O)c1ccncc1.NC(=O)c1ccncc1.NC(=O)c1ccncc1.NC(=O)c1ccncc1.NC(=O)c1ccncc1.NC(=O)c1ccncc1.NC(=O)c1ccncc1.O=C([O-])c1ccccc1O.O=C([O-])c1ccccc1O.O=C([O-])c1ccccc1O.O=C([O-])c1ccccc1O.[Li+].[Li+].[Li+].[Li+] [Compound 32, [Li2(salicylate)2(isonicotinamide)4]2]	Stable?	No
NC(=O)c1ccncc1.NC(=O)c1ccncc1.O=C([O-])CCC(=O)[O-].[Li+].[Li+] [Compound 7, [Li2(succinate) (isonicotinamide)2]n]	Stable?	Yes
O=C(O)[C@@H]1CCCN1.O=C([O-])c1ccccc1O.[Li+] [Compound 14, [Li(salicylate)(L-proline)]n]	Stable?	Yes

Which measured Stable? value corresponds to NC(=O)c1ccncc1.O.O=C([O-])/C=C\C(=O)O.[Li+] [Compound 22, [Li(maleate)(isonicotinamide) (water)]n] ? No
